Entry source: paper PMC10893061

Experiment Description: Cytotoxicity, neutral red uptake assay on BGM cells
Assay type: cell-based
Test Context: BGM monkey kidney cells

Compound: O=C1C(c2ccc(O)c(Br)c2)N(c2ccccc2)C(=O)CN1c1ccc(Cl)cc1 (centres unmarked)
Unit Tag: µg/mL
Relation Sign: =
CC50 at 24 h: 18.5
--
Compound: O=C1C(c2ccccc2F)N(c2ccc(Br)cc2)C(=O)CN1c1ccc(Cl)cc1 (centres unmarked)
Unit Tag: µg/mL
Relation Sign: =
CC50 at 24 h: 110
--
Compound: O=C1C(c2ccccc2F)N(c2ccccc2)C(=O)CN1c1ccc(Cl)cc1 (centres unmarked)
Unit Tag: µg/mL
Relation Sign: ≤
CC50 at 24 h: 3.1
--
Compound: O=C1C(c2ccccc2F)N(c2ccc(F)cc2)C(=O)CN1c1ccc(Cl)cc1 (centres unmarked)
Unit Tag: µg/mL
Relation Sign: =
CC50 at 24 h: 9.4
--
Compound: O=C1C(c2ccccc2F)N(c2ccc(Cl)cc2)C(=O)CN1c1ccc(Cl)cc1 (centres unmarked)
Unit Tag: µg/mL
Relation Sign: =
CC50 at 24 h: 139

----------
Experiment Description: Cytotoxicity on THP-1 derived macrophages (AlamarBlue)
Type: cell-based
Test Context: human, THP-1 cells differentiated into macrophages, THP-1 macrophages
Measured Endpoint: CC50 at 72 h

Molecule: C[C@@H]1[C@H](O)[C@@H](C)/C=C/C=C/C=C/C=C/C=C/C=C/C=C/[C@H](O[C@@H]2O[C@H](C)[C@@H](O)[C@H](N)[C@@H]2O)C[C@@H]2O[C@](O)(C[C@@H](O)C[C@@H](O)[C@H](O)CC[C@@H](O)C[C@@H](O)CC(=O)O[C@H]1C)C[C@H](O)[C@H]2C(=O)O [Amphotericin B, reference compound]
Measured Endpoint: CC50 at 72 h
Recorded Value: 367 µg/mL

Molecule: O=C1C(c2ccc(O)cc2)N(c2ccccc2)C(=O)CN1c1ccc(Cl)cc1 (stereo not drawn)
Measured Endpoint: CC50 at 72 h
Recorded Value: 611 µg/mL

Molecule: CC(=O)Nc1ccc(C2C(=O)N(c3ccc(Cl)cc3)CC(=O)N2c2ccccc2)cc1 (stereo not drawn)
Measured Endpoint: CC50 at 72 h
Recorded Value: 679 µg/mL
